B1: VPS39 (parent)
chain: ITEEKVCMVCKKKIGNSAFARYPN

# Variants of: B1
# run_description: protein stability index of a GFP-peptide fusion (GPS, HEK-293T) (PSI 1-6); higher = more stable;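 note: lentivirally expressed fusions sorted by FACS into six bins by GFP to DsRed ratio, PSI derived from sequencing read proportions per bin multiplied by bin number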
# condition_details: c terminus: a fixed tail appended
The threshold is inclusive: protein stability index of exactly 2 counts as Y; values below receive N.

>>> df
   changes  category_label
0      V9K               Y
1     I14L               Y
2     K13W               N

In: Could you please find out whether E3P has protein stability index that meets 2 or exceeds it?
Out: Y

In: Is protein stability index for N24Q at or above 2?
Out: Y

In: # bool: protein stability index of A18Y >= 2
Out: N

In: Confirm if protein stability index reported for the variant P23C is 2 or above.
Out: Y
